target system: HLA-A*03:01
test description: IEDB peptide-MHC binding, purified MHC/direct/fluorescence; filed as Kd, often an IC50 or EC50 that approximates it; bounds were set here for any values at or beyond the usual limits of such assays
condition: source organism: Camelpox virus CMS
property: Kd

Noted for VSEKYTDMY : its Kd reads ≥ 20 µM

* * *

target system: HLA-A*24:03
test description: IEDB peptide-MHC binding, purified MHC/direct/fluorescence; filed as Kd, often an IC50 or EC50 that approximates it; bounds were set here for any values at or beyond the usual limits of such assays
condition: source organism: Zaire ebolavirus
So I've got a bunch of sequences here, and I need their Kd values.

Noted for HQKKNEISF : its Kd reads ≥ 20 µM

Noted for ATAAATEAY : its Kd reads ≥ 20 µM
